test system: Fusarium oxysporum (NCIM-1332)
RECORDED METRIC: MIC (µg/mL)

Some solved cases for reference:
O=c1oc2ccccc2c(O)c1C(c1c(Cl)cccc1Cl)N(C1CCCCC1)C1CCCCC1 (stereo not shown) [Compound 4c]	35
O=c1oc2ccccc2c(O)c1C(c1ccc(O)cc1)N(C1CCCCC1)C1CCCCC1 (stereo not shown) [Compound 4i]	35
COc1ccc(C(c2c(O)c3ccccc3oc2=O)N(C2CCCCC2)C2CCCCC2)cc1OC (stereo not shown) [Compound 4g]	35
CCOc1cc(C(c2c(O)c3ccccc3oc2=O)N(C2CCCCC2)C2CCCCC2)ccc1O (stereo not shown) [Compound 4l]	28
O=c1oc2ccccc2c(O)c1C(c1ccc(F)cc1F)N(C1CCCCC1)C1CCCCC1 (stereo not shown) [Compound 4e]	30

a. O=c1oc2ccccc2c(O)c1C(c1ccc(F)cc1)N(C1CCCCC1)C1CCCCC1 (stereo not shown) [Compound 4d]
b. O=c1oc2ccccc2c(O)c1C(c1ccco1)N(C1CCCCC1)C1CCCCC1 (stereo not shown) [Compound 4o]
Query: Field: lower MIC | Options: a / b Reply briefly: the label of your chosen item.
Reply: a

1. O=c1oc2ccccc2c(O)c1C(c1ccccn1)N(C1CCCCC1)C1CCCCC1 (stereo not shown) [Compound 4m]
2. O=c1oc2ccccc2c(O)c1C(c1cccs1)N(C1CCCCC1)C1CCCCC1 (stereo not shown) [Compound 4n]
Query: Between the two listed entries 1 and 2 , which has its MIC at the higher number? Reply briefly: the label of your chosen item.
Reply: 2

I. O=c1oc2ccccc2c(O)c1C(c1ccccc1O)N(C1CCCCC1)C1CCCCC1 (stereo not shown) [Compound 4j]
II. O=c1oc2ccccc2c(O)c1C(c1ccccc1)N(C1CCCCC1)C1CCCCC1 (stereo not shown) [Compound 4a]
Query: Between the two listed entries I and II , which has its MIC at the higher number? Reply briefly: the label of your chosen item.
Reply: II

a. COc1cc(C(c2c(O)c3ccccc3oc2=O)N(C2CCCCC2)C2CCCCC2)cc(OC)c1OC (stereo not shown) [Compound 4h]
b. Clc1ccc(COC(Cn2ccnc2)c2ccc(Cl)cc2Cl)c(Cl)c1 (stereo not shown) [Miconazole, reference compound]
Query: Field: lower MIC | Options: a / b Reply briefly: the label of your chosen item.
Reply: b

----------
tested on: Aspergillus fumigates (NCIM-902); experiment: In vitro antifungal activity, MIC, agar method (CLSI); assay type: cell-based; settings: NCIM902, average of three readings
RECORDED METRIC: MIC (µg/mL)

Some solved cases for reference:
COc1ccc(C(c2c(O)c3ccccc3oc2=O)N(C2CCCCC2)C2CCCCC2)cc1 (stereo not shown) [Compound 4f]	44
COc1cc(C(c2c(O)c3ccccc3oc2=O)N(C2CCCCC2)C2CCCCC2)ccc1O (stereo not shown) [Compound 4k]	38
COc1cc(C(c2c(O)c3ccccc3oc2=O)N(C2CCCCC2)C2CCCCC2)cc(OC)c1OC (stereo not shown) [Compound 4h]	50
O=c1oc2ccccc2c(O)c1C(c1cccs1)N(C1CCCCC1)C1CCCCC1 (stereo not shown) [Compound 4n]	67
O=c1oc2ccccc2c(O)c1C(c1ccc(O)cc1)N(C1CCCCC1)C1CCCCC1 (stereo not shown) [Compound 4i]	42

P. CCOc1cc(C(c2c(O)c3ccccc3oc2=O)N(C2CCCCC2)C2CCCCC2)ccc1O (stereo not shown) [Compound 4l]
Q. COc1ccc(C(c2c(O)c3ccccc3oc2=O)N(C2CCCCC2)C2CCCCC2)cc1OC (stereo not shown) [Compound 4g]
R. O=c1oc2ccccc2c(O)c1C(c1ccccc1)N(C1CCCCC1)C1CCCCC1 (stereo not shown) [Compound 4a]
Query: Let's sort these by MIC, smallest first. Go ahead? Order the labels as requested and give them as your answer.
Reply: P, Q, R
(P: 36 µg/mL, Q: 52 µg/mL, R: 84 µg/mL)

----------
RECORDED METRIC: melting point

Some solved cases for reference:
O=c1oc2ccccc2c(O)c1C(c1ccc(F)cc1)N(C1CCCCC1)C1CCCCC1 (stereo not shown) [Compound 4d]	122 to 124 °C
O=c1oc2ccccc2c(O)c1C(c1ccc(O)cc1)N(C1CCCCC1)C1CCCCC1 (stereo not shown) [Compound 4i]	128 to 130 °C
O=c1oc2ccccc2c(O)c1C(c1cccs1)N(C1CCCCC1)C1CCCCC1 (stereo not shown) [Compound 4n]	140 to 142 °C
COc1cc(C(c2c(O)c3ccccc3oc2=O)N(C2CCCCC2)C2CCCCC2)cc(OC)c1OC (stereo not shown) [Compound 4h]	136 to 138 °C
O=c1oc2ccccc2c(O)c1C(c1ccco1)N(C1CCCCC1)C1CCCCC1 (stereo not shown) [Compound 4o]	148 to 150 °C

Query: Given the entry O=c1oc2ccccc2c(O)c1C(c1ccccn1)N(C1CCCCC1)C1CCCCC1 (stereo not shown) [Compound 4m] , report its measured melting point.
Reply: 148 to 150 °C

Query: Now give it for COc1ccc(C(c2c(O)c3ccccc3oc2=O)N(C2CCCCC2)C2CCCCC2)cc1OC (stereo not shown) [Compound 4g] too.
Reply: 138 to 140 °C

Query: Now give it for O=c1oc2ccccc2c(O)c1C(c1ccccc1)N(C1CCCCC1)C1CCCCC1 (stereo not shown) [Compound 4a] too.
Reply: 112 to 114 °C

Query: Now give it for COc1ccc(C(c2c(O)c3ccccc3oc2=O)N(C2CCCCC2)C2CCCCC2)cc1 (stereo not shown) [Compound 4f] too.
Reply: 133 to 135 °C

Query: Now give it for O=c1oc2ccccc2c(O)c1C(c1ccc(Cl)cc1)N(C1CCCCC1)C1CCCCC1 (stereo not shown) [Compound 4b] too.
Reply: 120 to 122 °C

Query: Now give it for O=c1oc2ccccc2c(O)c1C(c1c(Cl)cccc1Cl)N(C1CCCCC1)C1CCCCC1 (stereo not shown) [Compound 4c] too.
Reply: 126 to 128 °C

Query: Now give it for CCOc1cc(C(c2c(O)c3ccccc3oc2=O)N(C2CCCCC2)C2CCCCC2)ccc1O (stereo not shown) [Compound 4l] too.
Reply: 140 to 142 °C

Query: Now give it for O=c1oc2ccccc2c(O)c1C(c1ccccc1O)N(C1CCCCC1)C1CCCCC1 (stereo not shown) [Compound 4j] too.
Reply: 130 to 132 °C

----------
Observed MIC for Aspergillus niger (NCIM-1196), reported per entry below.
RECORDED METRIC: MIC (µg/mL)

Some solved cases for reference:
O=c1oc2ccccc2c(O)c1C(c1ccccc1)N(C1CCCCC1)C1CCCCC1 (stereo not shown)	43
O=c1oc2ccccc2c(O)c1C(c1ccco1)N(C1CCCCC1)C1CCCCC1 (stereo not shown)	49
COc1cc(C(c2c(O)c3ccccc3oc2=O)N(C2CCCCC2)C2CCCCC2)ccc1O (stereo not shown)	15
COc1cc(C(c2c(O)c3ccccc3oc2=O)N(C2CCCCC2)C2CCCCC2)cc(OC)c1OC (stereo not shown)	34
O=c1oc2ccccc2c(O)c1C(c1ccc(O)cc1)N(C1CCCCC1)C1CCCCC1 (stereo not shown)	28

A. Clc1ccc(COC(Cn2ccnc2)c2ccc(Cl)cc2Cl)c(Cl)c1 (stereo not shown) [Miconazole, reference compound]
B. O=c1oc2ccccc2c(O)c1C(c1c(Cl)cccc1Cl)N(C1CCCCC1)C1CCCCC1 (stereo not shown)
Query: Between the two listed entries A and B , which has its MIC at the higher number? Reply briefly: the label of your chosen item.
Reply: B

I. COc1ccc(C(c2c(O)c3ccccc3oc2=O)N(C2CCCCC2)C2CCCCC2)cc1 (stereo not shown)
II. O=c1oc2ccccc2c(O)c1C(c1ccc(Cl)cc1)N(C1CCCCC1)C1CCCCC1 (stereo not shown)
Query: Field: lower MIC | Options: I / II Reply briefly: the label of your chosen item.
Reply: II
(II: 15 µg/mL, I: 22 µg/mL)

A. O=c1oc2ccccc2c(O)c1C(c1ccccn1)N(C1CCCCC1)C1CCCCC1 (stereo not shown)
B. CCOc1cc(C(c2c(O)c3ccccc3oc2=O)N(C2CCCCC2)C2CCCCC2)ccc1O (stereo not shown)
C. O=c1oc2ccccc2c(O)c1C(c1cccs1)N(C1CCCCC1)C1CCCCC1 (stereo not shown)
Query: Let's sort these by MIC, smallest first. Go ahead? Order the labels as requested and give them as your answer.
Reply: B, A, C

P. O=c1oc2ccccc2c(O)c1C(c1ccc(F)cc1)N(C1CCCCC1)C1CCCCC1 (stereo not shown)
Q. O=c1oc2ccccc2c(O)c1C(c1ccccc1O)N(C1CCCCC1)C1CCCCC1 (stereo not shown)
Query: Between the two listed entries P and Q , which has its MIC at the higher number? Reply briefly: the label of your chosen item.
Reply: Q
(Q: 30 µg/mL, P: 20 µg/mL)

----------
Observed MIC for Fusarium oxysporum (NCIM-1332), reported per entry below.
RECORDED METRIC: MIC (µg/mL)

COc1cc(C(c2c(O)c3ccccc3oc2=O)N(C2CCCCC2)C2CCCCC2)ccc1O (stereo not drawn)	28
COc1ccc(C(c2c(O)c3ccccc3oc2=O)N(C2CCCCC2)C2CCCCC2)cc1 (stereo not drawn)	39
O=c1oc2ccccc2c(O)c1C(c1ccc(Cl)cc1)N(C1CCCCC1)C1CCCCC1 (stereo not drawn)	34
